test: qHTS Assay for Lipid Storage Modulators in Drosophila S3 Cells; conditions: BODIPY lipid droplet fluorescence, 18-24 h, cells fed with added oleic acid; measured here: cell count max response;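 also: cells counted by Cell Tracker Red CMTPX staining in the red channel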
The campaign covered roughly 320,000 compounds. About 2,100 (0.66%) were called active. Roughly 53% stayed inconclusive and do not appear here. Shown is part of a subset that was picked to be rich in actives.
This section presents molecules with their documented cell number change values.

molecule: CCC1C(=O)N=C(SCC(=O)Nc2ccc(S(N)(=O)=O)cc2)NC1=O (stereo not drawn)
cell number change, %: -37.4
--
molecule: Cc1ccc(/C=N/NC(=O)CSc2nc3ccccc3[nH]2)o1
cell number change, %: 23.1
--
molecule: O=c1ncn(-c2ccccc2C(F)(F)F)c2ncccc12
cell number change, %: -1.22
--
molecule: CCOc1ccc(S(=O)(=O)N2CCN(C(=O)c3cc(C4CC4)nn3-c3ccccc3)CC2)cc1
cell number change, %: -18
--
molecule: Cc1cccc(NS(=O)(=O)c2cn(C)c(=O)n(C)c2=O)c1C
cell number change, %: 14.4
--
molecule: COc1ccc(N2CCN(C(=O)CN3C(=O)NC(C)(C4CC4)C3=O)CC2)cc1 (stereo not drawn)
cell number change, %: -22.3
--
molecule: O=C(c1cc(C2CC2)nn1-c1ccccc1)N1CCN(S(=O)(=O)c2cccc(F)c2)CC1
cell number change, %: 16.5
--
molecule: CCC1(c2ccc(F)cc2)NC(=O)N(CC(=O)N2CCOCC2)C1=O (stereo not drawn)
cell number change, %: -2.03

====

assay: qHTS Assay for Lipid Storage Modulators in Drosophila S3 Cells; conditions: BODIPY lipid droplet fluorescence, 18-24 h, cells fed with added oleic acid; measured here: cell count max response;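 also: cells counted by Cell Tracker Red CMTPX staining in the red channel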
Out of some 320,000 compounds screened, about 2,100 (0.66%) were called active. Roughly 53% stayed inconclusive and do not appear here. Many of the other results were omitted from the sample, so actives are more common in it than they were.
This section presents compounds with their documented cell number change values.
recorded.metric: cell number change (%)

compound: COc1ccccc1C(=O)NCCC(=O)NCC1COc2ccccc2O1 (stereo unspecified)
recorded.metric: cell number change
value.unit: %
number: -11.7
//
compound: CCn1nc(NC(=O)C(C)(C)C)c2cc3cccc(C)c3nc21
recorded.metric: cell number change
value.unit: %
number: 12.4
//
compound: CCCc1nnc(NC(=O)CS(=O)(=O)c2ccccc2)s1
recorded.metric: cell number change
value.unit: %
number: -20
//
compound: Cc1ccnc(NC(=O)c2ccc([N+](=O)[O-])s2)c1
recorded.metric: cell number change
value.unit: %
number: -22
//
compound: COC(=O)CSc1nnc(CNS(=O)(=O)c2ccc(Cl)cc2)n1C
recorded.metric: cell number change
value.unit: %
number: -22.7
//
compound: O=C(CCCC(=O)c1ccccc1)NCCc1ccccc1F
recorded.metric: cell number change
value.unit: %
number: 22
//
compound: CCOC(=O)C1CCCN(C2CC(=O)N(c3ccc(C(C)C)cc3)C2=O)C1 (stereo unspecified)
recorded.metric: cell number change
value.unit: %
number: 15.9
//
compound: CNCCCOc1ccc(C)cc1Br
recorded.metric: cell number change
value.unit: %
number: -34.9
//
compound: CCOC(=O)Cn1cnc2scc(-c3ccc(C)c(C)c3)c2c1=O
recorded.metric: cell number change
value.unit: %
number: 4.4
//
compound: Cc1ccnc(NC(=O)c2ccc(Br)s2)c1
recorded.metric: cell number change
value.unit: %
number: 12.2
//
compound: Cc1cccc2c1N(CCCOc1ccccc1)C(=O)C2=O
recorded.metric: cell number change
value.unit: %
number: 4.6
//
compound: CCCCNCCCOc1ccc(C)cc1Br
recorded.metric: cell number change
value.unit: %
number: 10
//
compound: CC1(C)CC(C(CC(=O)Nc2nccs2)c2ccccc2)CCO1 (stereo unspecified)
recorded.metric: cell number change
value.unit: %
number: -3.73
//
compound: Cc1ccccc1NC(=O)c1ccc2ccccc2c1
recorded.metric: cell number change
value.unit: %
number: 14.2
//
compound: CC(C)C(NS(=O)(=O)c1ccc2c3c(cccc13)C(=O)N2)C(=O)O (stereo unspecified)
recorded.metric: cell number change
value.unit: %
number: 15.8
//
compound: CC(=O)c1cccc(NC(=O)c2ccccc2OCc2ccc(F)cc2)c1
recorded.metric: cell number change
value.unit: %
number: 17.5
//
compound: CCC(=O)Nc1ccc(S(=O)(=O)Nc2ccc(Cl)nn2)cc1
recorded.metric: cell number change
value.unit: %
number: -1.17
//
compound: O=C(Nc1cccc([N+](=O)[O-])c1)Nc1cccc([N+](=O)[O-])c1
recorded.metric: cell number change
value.unit: %
number: -6.97
//
compound: COc1ccc(OCc2cc(C(=O)N(C)C(C)c3ccon3)no2)c(Cl)c1 (stereo unspecified)
recorded.metric: cell number change
value.unit: %
number: -9.97
//
compound: O=C(c1ccc([N+](=O)[O-])cc1)N1CCN(Cc2ccccc2)CC1
recorded.metric: cell number change
value.unit: %
number: 11.4
//
compound: Cc1ccc(NC(=O)c2sc3nc4c(c(-c5ccco5)c3c2N)CCC4)cc1
recorded.metric: cell number change
value.unit: %
number: -11.1
